Provenance of the data: patent US20240317777A1

target: CDK4-CYCLIN D1 (Homo sapiens); experiment: CDK protein kinase inhibition by ADP-Glo assay, CDK4-CYCLIN D1; type: biochemical; details: ADP-Glo, 1000 μM ATP; Table 31; read-out: CDK4-CYCLIND1, IC50
MEASURED PARAMETER: IC50

COMPOUND: C[C@@H]1NC(=O)O[C@@H]2CC[C@@H](C2)c2cc([nH]n2)Nc2ccnc(c2)COCC1(F)F [compound 164]
MEASURED PARAMETER: IC50
RESULT: ≤ 10 nM
--
COMPOUND: C[C@H]1CCCC(F)(F)c2cc(ccn2)Nc2cc(n[nH]2)[C@H]2CC[C@H](C2)OC(=O)N1 [Compound 166]
MEASURED PARAMETER: IC50
RESULT: 100 to 500 nM

Below are 2 compounds. Give each one its IC50.
1. C[C@H]1NC(=O)O[C@@H]2CC[C@@H](C2)c2cc([nH]n2)Nc2ccnc(c2)COCC1(F)F [compound 165]
2. O=C1N[C@H]2C[C@@H](CC(F)(F)c3cc(ccn3)Nc3cc(n[nH]3)[C@H]3CC[C@H](C3)O1)C2 (single isomer, unassigned) [Compound 170]

A)
10 to 50 nM
10 to 50 nM

* * *

biological target: CDK1-CYCLIN B (Homo sapiens, UniProt P06493); assay: CDK protein kinase inhibition by ADP-Glo assay, CDK1-CYCLIN B; format: biochemical; settings: ADP-Glo, 1000 μM ATP; Table 23; read-out: CDK1-CYCLINB, IC50
Sequence (P06493 whole entry): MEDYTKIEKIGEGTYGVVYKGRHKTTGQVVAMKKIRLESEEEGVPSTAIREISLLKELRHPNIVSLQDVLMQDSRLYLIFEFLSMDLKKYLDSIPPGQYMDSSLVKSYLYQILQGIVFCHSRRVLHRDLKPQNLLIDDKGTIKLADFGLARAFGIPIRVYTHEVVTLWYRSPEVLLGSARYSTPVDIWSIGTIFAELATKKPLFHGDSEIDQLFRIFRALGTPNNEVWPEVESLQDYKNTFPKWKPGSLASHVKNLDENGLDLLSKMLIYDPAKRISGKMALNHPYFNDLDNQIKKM
Sequence (P14635 whole entry partner): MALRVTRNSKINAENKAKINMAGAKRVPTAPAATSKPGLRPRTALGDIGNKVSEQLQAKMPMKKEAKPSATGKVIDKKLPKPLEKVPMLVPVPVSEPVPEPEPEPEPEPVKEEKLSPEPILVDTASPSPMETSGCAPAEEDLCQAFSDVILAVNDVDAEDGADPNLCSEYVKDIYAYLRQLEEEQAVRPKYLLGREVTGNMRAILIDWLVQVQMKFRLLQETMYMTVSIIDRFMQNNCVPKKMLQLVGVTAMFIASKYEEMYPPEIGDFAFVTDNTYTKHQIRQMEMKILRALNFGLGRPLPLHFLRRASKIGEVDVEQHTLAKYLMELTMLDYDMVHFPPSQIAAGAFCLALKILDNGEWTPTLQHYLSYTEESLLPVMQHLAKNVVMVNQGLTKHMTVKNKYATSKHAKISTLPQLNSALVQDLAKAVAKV
MEASURED PARAMETER: IC50

Some compounds with recorded IC50:
SMILES: C[C@H]1CCO[C@H](C)c2cc(ccn2)Nc2cc(n[nH]2)[C@H]2CC[C@H](C2)OC(=O)N1
SYSTEM UNDER TEST: CDK1-CYCLIN B (Homo sapiens, UniProt P06493)
MEASURED PARAMETER: IC50
RESULT: 100 to 500 nM

SMILES: C[C@@H]1Oc2cncc(c2)Nc2cc(n[nH]2)[C@H]2CC[C@H](C2)OC(=O)N[C@H]2C[C@@H]1C2
SYSTEM UNDER TEST: CDK1-CYCLIN B (Homo sapiens, UniProt P06493)
MEASURED PARAMETER: IC50
RESULT: 100 to 500 nM

SMILES: C[C@@H]1CC[C@H](C)Oc2cc(ccn2)Nc2cc(n[nH]2)[C@H]2CC[C@H](C2)OC(=O)N1
SYSTEM UNDER TEST: CDK1-CYCLIN B (Homo sapiens, UniProt P06493)
MEASURED PARAMETER: IC50
RESULT: 50 to 100 nM

Okay, next one:
Q) Entry `C[C@@H]1OCC[C@H](C)NC(=O)O[C@@H]2CC[C@@H](C2)c2cc([nH]n2)Nc2ccnc1c2` has what IC50?
A) 10 to 50 nM

* * *

molecular target: CDK1-CYCLIN B (Homo sapiens); assay: CDK protein kinase inhibition by ADP-Glo assay, CDK1-CYCLIN B; assay type: biochemical; settings: ADP-Glo, 1000 μM ATP; Table 27; read-out: CDK1-CYCLINB, IC50
pIC50: −log10 of the molar value.
Exercise: for every item that follows, state its recorded pIC50.

MOLECULE: [2H]C1([2H])CC[C@H](C)NC(=O)O[C@@H]2CC[C@@H](C2)c2cc([nH]n2)Nc2ccnc(c2)O1 [Compound 173]
RESULT: 6.30 to 7.00

Q) Entry [2H]C1([2H])Oc2cc(ccn2)Nc2cc(n[nH]2)[C@H]2CC[C@H](C2)OC(=O)N[C@H]2C[C@H]1C2 [Compound 177] has what pIC50?
A) 7.30 to 8.00

* * *

biological target: CDK1-CYCLIN B (Homo sapiens, UniProt P06493); assay: CDK protein kinase inhibition by ADP-Glo assay, CDK1-CYCLIN B; format: biochemical; settings: ADP-Glo, 1000 μM ATP; Table 11; read-out: CDK1-CYCLINB, IC50
MEASURED PARAMETER: IC50

Below are 4 molecules. Give each one its IC50.
1. O=C1NC23CC(COc4cc(cc(C(F)F)n4)Nc4cc([nH]n4)[C@H]4CC[C@H](C4)O1)(C2)C3 [Compound 19]
2. O=C1N[C@H]2C[C@H](COc3cc(ccn3)Nc3cc(n[nH]3)[C@H]3CC[C@H](C3)O1)C2 [Compound 108]
3. C[C@H]1CCCNC(=O)O[C@@H]2CC[C@@H](C2)c2cc([nH]n2)Nc2ccnc(c2)O1 [compound 12]
4. O=C1NC23CC(CCOc4cncc(c4)Nc4cc(n[nH]4)[C@H]4CC[C@H](C4)O1)(C2)C3 [Compound 117]

A)
1: 50 to 100 nM; 2: 10 to 50 nM; 3: 10 to 50 nM; 4: ≤ 10 nM

* * *

target: UniProt:P06493; assay: CDK protein kinase inhibition by ADP-Glo assay, CDK1-CYCLIN B; type: biochemical; settings: ADP-Glo, 1000 μM ATP; Table 7; read-out: CDK1-CYCLINB, IC50
Exercise: for every item that follows, state its recorded IC50.

Some compounds with recorded IC50:
SMILES: C[C@H]1CCCOc2cc(ccn2)Nc2cc([nH]n2)[C@H]2CC[C@H](C2)OC(=O)N1
SYSTEM UNDER TEST: UniProt:P06493
IC50: 100 to 500 nM
//
SMILES: O=C1NCCCCOc2cccc(c2)Nc2cc([nH]n2)[C@H]2CC[C@H](C2)O1
SYSTEM UNDER TEST: UniProt:P06493
IC50: 100 to 500 nM
//
SMILES: O=C1NCCCCOc2cc(cc(C(F)F)n2)Nc2cc([nH]n2)[C@H]2CC[C@H](C2)O1
SYSTEM UNDER TEST: UniProt:P06493
IC50: 50 to 100 nM
//
SMILES: O=C1NCCCCCc2cc(cc(C(F)F)n2)Nc2cc([nH]n2)[C@H]2CC[C@H](C2)O1
SYSTEM UNDER TEST: UniProt:P06493
IC50: ≤ 10 nM
//
SMILES: C[C@@H]1CCCOc2cc(ccn2)Nc2cc([nH]n2)[C@H]2CC[C@H](C2)OC(=O)N1
SYSTEM UNDER TEST: UniProt:P06493
IC50: 100 to 500 nM
//
SMILES: O=C1NCCCCCc2cc(ccn2)Nc2cc([nH]n2)[C@H]2CC[C@H](C2)O1
SYSTEM UNDER TEST: UniProt:P06493
IC50: 100 to 500 nM
//
SMILES: O=C1NCCCCOc2cncc(c2)Nc2cc(n[nH]2)[C@H]2CC[C@H](C2)O1
SYSTEM UNDER TEST: UniProt:P06493
IC50: 10 to 50 nM

Okay, next one:
Q) Entry `CC1(C)CCCOc2cc(ccn2)Nc2cc([nH]n2)[C@H]2CC[C@H](C2)OC(=O)N1` has what IC50?
A) 10 to 50 nM

* * *

biological target: CDK4-CYCLIN D1 (Homo sapiens, UniProt P11802); assay: CDK protein kinase inhibition by ADP-Glo assay, CDK4-CYCLIN D1; format: biochemical; settings: ADP-Glo, 1000 μM ATP; Table 29; read-out: CDK4-CYCLIND1, IC50
Sequence (P11802 whole entry): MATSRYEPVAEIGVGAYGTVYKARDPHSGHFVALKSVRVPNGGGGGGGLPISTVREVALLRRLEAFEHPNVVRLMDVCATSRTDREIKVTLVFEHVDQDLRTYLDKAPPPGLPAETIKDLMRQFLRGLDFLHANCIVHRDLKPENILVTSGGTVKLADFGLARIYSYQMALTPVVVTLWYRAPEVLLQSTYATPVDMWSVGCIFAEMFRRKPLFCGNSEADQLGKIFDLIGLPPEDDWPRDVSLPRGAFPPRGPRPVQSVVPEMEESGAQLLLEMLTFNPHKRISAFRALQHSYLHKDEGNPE
Sequence (P24385 whole entry partner): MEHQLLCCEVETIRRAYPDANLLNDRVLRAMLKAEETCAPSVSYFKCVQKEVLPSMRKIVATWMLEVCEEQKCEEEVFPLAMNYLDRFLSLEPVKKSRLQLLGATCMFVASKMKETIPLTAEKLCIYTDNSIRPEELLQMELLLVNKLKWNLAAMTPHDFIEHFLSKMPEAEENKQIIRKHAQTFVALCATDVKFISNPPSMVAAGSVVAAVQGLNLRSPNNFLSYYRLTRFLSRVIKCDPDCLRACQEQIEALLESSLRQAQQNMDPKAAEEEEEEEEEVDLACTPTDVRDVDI
pIC50: −log10 of the molar value.
MEASURED PARAMETER: pIC50

SMILES: C[C@H]1CCCOc2cc(ccn2)Nc2cc([nH]n2)[C@H]2CC[C@H](C2)OC(=O)N1
pIC50: < 6.30

Okay, next one:
Q) Entry `C[C@@H]1NC(=O)O[C@@H]2CC[C@@H](C2)c2cc([nH]n2)Nc2ccnc(c2)OCCC1(F)F` has what pIC50?
A) < 6.30

* * *

Exercise: for every item that follows, state its recorded IC50.
tested on: Phospho-Rb (Ser807/811) in OVCAR3 cells; test: Phospho-Rb expression inhibition in OVCAR3 cells quantified by In Cell Western; type: cell-based; details: Homo sapiens, OVCAR-3, 24 hours, read-out: OVCAR-3 pRb IC50

SMILES: C[C@H]1NC(=O)O[C@@H]2CC[C@@H](C2)c2n[nH]c(c2F)Nc2ccnc(c2)OCCC1(F)F
SYSTEM UNDER TEST: Phospho-Rb (Ser807/811) in OVCAR3 cells
IC50: 50 to 250 nM

Below are 2 compounds. Give each one its IC50.
1. O=C1NC23CC(CCCc4cc(ccn4)Nc4cc(n[nH]4)[C@H]4CC[C@H](C4)O1)(C2)C3
2. C[C@H]1OCCCNC(=O)O[C@@H]2CC[C@@H](C2)c2cc([nH]n2)Nc2ccnc1c2

A)
1. ≤ 2 nM
2. 2 to 10 nM

* * *

target: CDK1-CYCLIN B (Homo sapiens); test: CDK protein kinase inhibition by ADP-Glo assay, CDK1-CYCLIN B; assay type: biochemical; conditions: ADP-Glo, 1000 μM ATP; Table 9; read-out: CDK1-CYCLINB, IC50
MEASURED PARAMETER: IC50

Below are 2 compounds. Give each one its IC50.
1. C[C@@H]1CCC2(CC2)NC(=O)O[C@@H]2CC[C@@H](C2)c2cc([nH]n2)Nc2ccnc(c2)O1
2. O=C1NC23CC(CCc4cc(ccn4)Nc4cc([nH]n4)[C@H]4CC[C@H](C4)O1)(C2)C3

A)
1: 10 to 50 nM; 2: > 500 nM
